Where do the numbers come from? From ChEMBL document CHEMBL1961873.

Target: Ephrin type-A receptor 2 (Homo sapiens);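 also: value is the mean inhibition of EPHA2, measured in the GSK PKIS screen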
Settings: at 1 µM
readout: inhibition (%)
Output spec: scalar in %, unitless text.

Look up inhibition for this molecule: `NS(=O)(=O)c1cccc(-c2cc3ccncc3cc2OCc2ccccc2)c1`
1.53

Would you mind doing `OCc1ccc(-c2nc(-c3ccccn3)c(-c3ccc4c(c3)OCO4)[nH]2)cc1` as well?
2.31

Would you mind doing `[O-][S+]1CCN(Cc2ccc(-c3ccc4ncnc(Nc5ccc(OCc6ccccc6)c(Cl)c5)c4c3)o2)CC1` as well?
-2.96

Would you mind doing `COc1cc2ncnc(Nc3ccc(C)c(O)c3)c2cc1OC` as well?
10.6

Would you mind doing `COC(=O)c1cncc(/C=C/c2c(C)cc(O)cc2C)c1` as well?
40.2

Would you mind doing `Cc1ccc(O)cc1Nc1ccnc2ccc(S(C)(=O)=O)cc12` as well?
95.7

Would you mind doing `COc1cccc(-n2ncc3c(N/N=C/c4ccc(C)cc4)ncnc32)c1` as well?
1.1

Would you mind doing `Cc1ccc2c(-c3ccnc(Nc4cccc(C(F)(F)F)c4)n3)c(-c3ccccc3)nn2n1` as well?
4.04

Would you mind doing `C[C@@H](Oc1cc(-n2cnc3ccc(OC[C@@H](O)CO)cc32)sc1C(N)=O)c1ccccc1Cl` as well?
-4.51

Would you mind doing `ON=C1CCc2cc(-c3nc(C4CCNCC4)[nH]c3-c3ccncc3)ccc21` as well?
0.6

Would you mind doing `NS(=O)(=O)c1ccc(N/N=C2\C(=O)Nc3ccc(Cl)cc32)cc1` as well?
1.3

Would you mind doing `NC(=O)c1cccc(Nc2nccc(Nc3cccc(F)c3)n2)c1` as well?
17.9

====

Molecular target: Serine/threonine-protein kinase Sgk3 (Homo sapiens)
Conditions: at 0.1 µM
readout: inhibition

Request - read-out inhibition | tested on Serine/threonine-protein kinase Sgk3 (Homo sapiens) | molecule `COc1cc2ncnc(Nc3ccc(C)c(O)c3)c2cc1OC`;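 also: reported percentages are averaged inhibition values against SGK3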
2.82%

Would you mind doing `NS(=O)(=O)c1cccc(-c2cc3ccncc3cc2OCc2ccccc2)c1` as well?
9.81%

Would you mind doing `c1ccc(Cc2nc3ccc(Nc4ncnc5ccccc45)cc3[nH]2)cc1` as well?
2.24%

Would you mind doing `O=C1Nc2ccccc2/C1=C/Nc1ccc2[nH]c(=O)[nH]c2c1` as well?
3.83%

Would you mind doing `NS(=O)(=O)c1cccc(Nc2cc(-c3ccc(F)cc3)n[nH]2)c1` as well?
3.81%

Would you mind doing `NS(=O)(=O)c1ccc(NC=C2C(=O)Nc3ccc4ncsc4c32)cc1` as well?
5.73%

Would you mind doing `CS(=O)(=O)Nc1cccc(-c2ccc3c(NC(=O)C4CC4)n[nH]c3c2)c1` as well?
1.19%

Would you mind doing `Cc1ccc(O)cc1Nc1ccnc2ccc(S(C)(=O)=O)cc12` as well?
4.36%

Would you mind doing `c1ccc(Nc2ncc(-c3ccccc3)o2)cc1` as well?
4.53%

Would you mind doing `COc1cccc(-n2ncc3c(N/N=C/c4ccc(C)cc4)ncnc32)c1` as well?
3.8%

Would you mind doing `COc1cc(/C=N/Nc2ncnc3c2cnn3C(C)C)ccc1O` as well?
0.68%

====

Target: Maternal embryonic leucine zipper kinase (Homo sapiens) (UniProt Q14680);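 also: each value is the mean inhibition of MELK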
Sequence (Q14680 whole entry, looked up): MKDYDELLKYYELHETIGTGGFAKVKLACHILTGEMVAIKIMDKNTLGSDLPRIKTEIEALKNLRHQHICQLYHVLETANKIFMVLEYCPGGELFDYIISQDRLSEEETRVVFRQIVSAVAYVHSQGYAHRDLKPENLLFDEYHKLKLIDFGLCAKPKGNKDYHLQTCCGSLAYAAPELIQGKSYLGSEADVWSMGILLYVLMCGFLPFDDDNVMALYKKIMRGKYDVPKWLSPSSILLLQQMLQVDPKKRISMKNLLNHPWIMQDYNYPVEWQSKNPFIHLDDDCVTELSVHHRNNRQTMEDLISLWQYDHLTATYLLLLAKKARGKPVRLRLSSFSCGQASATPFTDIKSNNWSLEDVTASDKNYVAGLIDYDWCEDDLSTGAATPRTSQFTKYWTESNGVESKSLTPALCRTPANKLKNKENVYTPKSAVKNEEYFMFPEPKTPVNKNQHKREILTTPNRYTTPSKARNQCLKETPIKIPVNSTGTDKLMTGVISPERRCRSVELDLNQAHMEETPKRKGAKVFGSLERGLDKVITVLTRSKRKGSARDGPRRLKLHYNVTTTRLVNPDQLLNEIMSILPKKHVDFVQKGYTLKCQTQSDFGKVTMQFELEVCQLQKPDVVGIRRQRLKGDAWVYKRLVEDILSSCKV
Details: at 1 µM
Okay, here is how we bin by inhibition: lower bin (below 6%), middle bin (6% to below 8%), upper bin (8% or more)

Which class holds `CC(C)c1ccc(Nc2nccc(-c3cnn4ncccc34)n2)cc1` ?
upper bin

Would you mind doing `O=S(=O)(CCOCc1ccc(-c2ccc3ncnc(Nc4ccc(OCc5cccc(F)c5)c(Cl)c4)c3c2)o1)c1ccccc1` as well?
middle bin

Would you mind doing `COC(=O)Nc1nc2cc(Oc3ccc(NC(=O)Nc4cccc(Br)c4)cc3)ccc2[nH]1` as well?
lower bin

Would you mind doing `c1ccc(Cc2nc3ccc(Nc4ncnc5ccccc45)cc3[nH]2)cc1` as well?
middle bin

Would you mind doing `Cc1cc(Cl)cc2c1NC(=O)C2=NNc1ccc(S(N)(=O)=O)cc1` as well?
lower bin

Would you mind doing `NS(=O)(=O)c1ccc(NC=C2C(=O)Nc3ccc4ncsc4c32)cc1` as well?
upper bin

Would you mind doing `Cc1ccc2c(c1)/C(=N/Nc1ccc(S(N)(=O)=O)cc1)C(=O)N2` as well?
middle bin

Would you mind doing `COc1cccc(-n2ncc3c(N/N=C/c4ccc(S(C)(=O)=O)cc4)ncnc32)c1` as well?
lower bin
